These measurements were taken from patent US20210284749A1.

Biological target: T1, human BCMA expressed on cell surface (H929, OPM-2, CHOK1-hBCMA cells) (human, UniProt Q02223 1-184)
T1 construct: also called cell-surface BCMA; BCMA on cell surface
T1 sequence: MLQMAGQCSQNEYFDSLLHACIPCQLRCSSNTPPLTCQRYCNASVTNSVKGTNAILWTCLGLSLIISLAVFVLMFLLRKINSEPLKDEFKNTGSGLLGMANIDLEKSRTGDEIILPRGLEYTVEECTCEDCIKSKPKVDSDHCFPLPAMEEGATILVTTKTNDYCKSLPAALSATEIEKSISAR
Test: FACS on H929 cells
Can you tell me MFI for the items I'm about to list?
One number for each entry.

Reference set (2 entries):
binder | MFI
mutant antibody 5A6 LM8 (antibody, V domains shown, Light chain CDR mutant of 5A6 (IgG1); heavy chain as 5A6) VH: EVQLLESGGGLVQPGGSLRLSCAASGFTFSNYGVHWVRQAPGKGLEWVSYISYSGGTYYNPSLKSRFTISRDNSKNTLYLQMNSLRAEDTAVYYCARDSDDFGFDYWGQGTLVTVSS VL: QSVLTQPPSASGTPGQRVTISCQGDALRSYYVNWYQQLPGTAPKLLIYDHSKRPTGVPDRFSGSKSGTSASLAISGLRSEDEADYYCQSYDASTVVFGGGTKLTVLG | 68.6
mutant antibody 5A6 LM3 (antibody, V domains shown, Light chain CDR mutant of 5A6 (IgG1); heavy chain as 5A6) VH: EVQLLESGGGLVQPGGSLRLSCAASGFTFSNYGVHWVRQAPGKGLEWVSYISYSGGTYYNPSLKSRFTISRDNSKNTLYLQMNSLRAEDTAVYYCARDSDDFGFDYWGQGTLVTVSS VL: QSVLTQPPSASGTPGQRVTISCQGDSLRSYYVNWYQQLPGTAPKLLIYDHSKRPTGVPDRFSGSKSGTSASLAISGLRSEDEADYYCQSYESSTVVFGGGTKLTVLG | 84.6

Switching to the query record.
Field MFI (entry mutant antibody 5A6 LM1 (antibody, V domains shown, Light chain CDR mutant of 5A6 (IgG1); heavy chain as 5A6) VH: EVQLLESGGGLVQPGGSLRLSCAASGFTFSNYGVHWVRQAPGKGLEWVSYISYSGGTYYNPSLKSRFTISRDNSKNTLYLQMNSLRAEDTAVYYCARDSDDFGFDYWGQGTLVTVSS VL: QSVLTQPPSASGTPGQRVTISCQGESLRSYYVNWYQQLPGTAPKLLIYDHSKRPTGVPDRFSGSKSGTSASLAISGLRSEDEADYYCQSYDSSTVVFGGGTKLTVLG ) reads 83.4
